Experiment: Acute Toxicity in Mice
Assay type: in vivo
Details: mouse, in vivo, po; 100 mg/kg p.o.; death rate recorded 9 days after treatment
Method: The compounds were administered orally or intraperitoneally, in the form of a solution in physiological saline (0,9 % NaCl), to male mice of Swiss strain (body weight: 22-25 g). The death rate was recorded 9 days after the treatment. […]
ASSAY ENDPOINT: mortality at 216 h (%)
Give bare numbers, in %.

Provide one value: measured mortality at 216 h of C=CCN=C1CC(c2cc3ccccc3o2)CN1C (stereo not shown) [Example 9] 0

---

experiment: Acute Toxicity in Mice; type: in vivo; conditions: mouse, in vivo, ip; 100 mg/kg i.p.; death rate recorded 9 days after treatment
For each of the compounds below, state its mortality at 216 h.
Numbers only, in %.

C=CCN=C1CC(c2cc3ccccc3o2)CN1C (stereo not shown) : 60
COc1ccc(CCN=C2CC(COc3ccc4c(c3)OCO4)CN2C)cc1OC (stereo not shown) : 80
CCN1CC(c2ccccc2)CC1=NCCc1ccc(OC)c(OC)c1 (stereo not shown) : 20
CN1CC(c2cc3ccccc3o2)CC1=NCCc1ccccc1 (stereo not shown) : 100
COCCN=C1CC(c2cc3ccccc3o2)CN1C (stereo not shown) : 100
CN1CC(COc2ccc3c(c2)OCO3)CC1=NCCOc1ccccc1 (stereo not shown) : 80
CC(Cc1ccccc1)N=C1CC(c2cc3ccccc3o2)CN1C (stereo not shown) : 80
COc1ccc(CCN=C2CC(c3cc4ccccc4o3)CN2C)cc1OC (stereo not shown) : 100

For the 2 compounds below, give their mortality at 216 h values.
1. CC(Cc1ccccc1)N=C1CC(c2ccccc2)CN1C (stereo not shown)
2. CN1CC(c2cc3ccccc3o2)CC1=NCCOc1ccccc1 (stereo not shown)

1: 100; 2: 100
